Record form. Attribute: phosphorylation enrichment. Fill in for each entry.
Test system: Fer (mouse);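 further: 11-residue human phosphosite peptides and single-mutation variants displayed on the E. coli surface, counted by deep sequencing, each peptide's frequency after selection divided by its frequency in the unselected input library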;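 further: frequency after pTyr selection over input frequency; kinase dosed for 20-30% of maximal phosphorylation in three min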
measurement protocol: phosphorylation enrichment, bacterial display (enrichment ratio); higher = better substrate or ligand; peptides without Tyr show the background

Problem: For LTKQEYDEAGP [ACTA1_Y364_I359L] , what is its reported phosphorylation enrichment?
Result: 0.638

Problem: Would you mind doing LRGEDYGFSVD [PRKCI_Y430] as well?
Result: 0.636

Problem: Please give the result for QDEHGYISWCF [HSPB1_Y133_R136W] too.
Result: 1.05

Problem: Try this sequence next: DMGAQYAAASR [ARID1B_Y483_P488R]
Result: 0.393

Problem: Now the sequence AKKKMYSRKTK [AGXT_Y231]
Result: 0.443

Problem: One more sequence: GVRLYYRVMES [RB1_Y454]
Result: 0.538

Problem: Now consider LKDEDYLKDIV [HAUS3_Y582] .
Result: 1.4

Problem: Next: PEPTGYSAELS [EZR_Y499_A494P]
Result: 0.456

Problem: Then KAVLHYKHQNQ [MTOR_Y1804_E1799K] ?
Result: 0.469

Problem: Next: PGAPAYRVLME [MYO5A_Y1245]
Result: 0.671

Problem: Subsequent entry: KQFWRYFAGNL [SLC25A4_Y112]
Result: 0.488

Problem: Then GGDAVYTNGTI [RFX2_Y82_A86T] ?
Result: 0.464

Problem: Quick one: QKDTFYGLRSL [IGSF10_Y126]
Result: 0.474

Problem: Repeat for the following sequence: LMLVLYGRIFL [HTR1A_Y215_R220L]
Result: 0.745

Problem: Now the sequence LARDMYDKEYY [MET_Y1230]
Result: 0.71

Problem: Check TEAGNYKLCFD [TMED1_Y103_D102N] too.
Result: 0.492

Problem: Now consider VFLGAYDHFLP [SLC22A5_Y486_R488H_YF] .
Result: 4.81

Problem: Queued: LIFVSYDDWDF [GRIN2A_Y281_S278F_YF]
Result: 17.4

Problem: Now try KKHIPYREHKS [CSNK1G1_Y205] .
Result: 1.81

Problem: Now try EEGRVYVYHLS [ITGAE_Y549_R552H] .
Result: 0.756

Problem: How about IPTPAYQSSPA [PDCD6IP_Y727] ?
Result: 0.373

Problem: Lookup ERLLDYTRTVQ [INPP5E_Y439]
Result: 0.544

Problem: Try the sequence MTEEQYIKMNR [ARFGEF2_Y797_K794E]
Result: 0.524

Problem: Try this sequence next: TTKGAYSLSVR [YES1_Y194_I198V]
Result: 0.403

Problem: Ok, now PVQAAYPKVVA [HBB_Y131_Q132P]
Result: 0.261

Problem: And the next one, FKEQGYHRLPP [RIN1_Y681_YF] ?
Result: 0.363

Problem: What about this sequence? IYHLSYLHNCE [PDE6B_Y227]
Result: 1.28

Problem: Note, next up: GVSYIYTIDGS [DCX_Y105_R102S]
Result: 0.412

Problem: Now the same for MSPPGYKLVTG [GJA1_Y286]
Result: 0.516

Problem: Okay, and DDYDLYGGEKF [PTPN11_Y66_Y62D] ?
Result: 0.957

Problem: Same question for QQMGTYGVRAA [ICAM2_Y260_R256Q] please.
Result: 0.339

Problem: Item: VHNLNYFKKTT [FGFR3_Y647_D646N_YF]
Result: 0.346

Problem: Another sequence: EEAAGYAQESQ [CAMKV_Y491]
Result: 0.547

Problem: Again, but for LGGAMYYLEAE [PKHD1_Y452]
Result: 0.667

Problem: Now the same for KVGNGYISAAE [CALM2_Y100_D96V]
Result: 0.476

Problem: Okay, and TTKGSYSLSVR [HCK_Y180] ?
Result: 0.388

Problem: Thanks! And CTTTHYNYMCN [TP53_Y234_I232T] ?
Result: 0.446

Problem: Repeat with SRPHLYGTPSR [ADGRE2_Y670]
Result: 0.402

Problem: And then TVSTRYTQPQP [SARG_Y259] , what is it?
Result: 0.471

Problem: Follow-up item: LLVVLCKFRCF [PSEN1_Y154_Y154C_YF]
Result: 0.722

Problem: What about this sequence? LTSVKYLLSAT [GSDMC_Y26_P23S]
Result: 0.406

Problem: Item: RWGQKHMTAVV [CYBA_Y72_Y72H]
Result: 0.692

Problem: Repeat for the following sequence: MANYMYKAGPS [MAML2_Y515]
Result: 0.358

Problem: Note, next up: ISNATYKEIGL [FLT1_Y199]
Result: 0.471

Problem: Next: SEDSEYFKAFE [CASQ2_Y178_YF]
Result: 0.471

Problem: // next record TSSAGYRRTPS [ABI1_Y333_G331A]
Result: 0.36

Problem: Proceed to QEIATYRRLPE [KRT16_Y417_L421P]
Result: 0.406

Problem: Let us now turn to IEPVIYVVQRR [ANOS1_Y217]
Result: 0.271

Problem: Now the sequence PSAELYSYALP [PDGFRB_Y716_N718Y]
Result: 25.8

Problem: Follow-up entry: PLGPLYASSNT [INSR_Y992_P997T]
Result: 1.1

Problem: Another sequence to look at: ERTIEYLEEVA [HADHA_Y239]
Result: 0.663

Problem: What about DKATEYSQYMR [MAX_Y70_I71S] ?
Result: 0.499

Problem: Again, but for NAPNSYGRRLI [CDKN2A_Y44_P48L]
Result: 0.475

Problem: Same thing, different sequence: LGRTRYQDVTG [MIPEP_Y510_H512D]
Result: 0.563

Problem: Another sequence to check: FGAHNHHPLPV [OAT_Y55_Y55H_YF]
Result: 0.505

Problem: Also, SLAARYFNWVS [FLT4_Y1230_YF] please.
Result: 0.479

Problem: Would you kindly repeat that for AEFGLYGAMVW [VSX2_Y222_R227W_YF] ?
Result: 2.1

Problem: What about this sequence? QPSPSYDSSGG [TCF12_Y70_R74G]
Result: 0.553

Where do these numbers come from? They come from the supplement of paper PMC10065799.
